The measured values listed here are drawn from patent US9624228B2.

pIC50 overview
biological target: ERK2 enzyme (Homo sapiens (Human), UniProt P28482); assay: Inhibition assay of ERK (Z'-LYTE kinase assay, Ser/Thr 3 peptide substrate); assay type: biochemical; details: In vitro, ERK2 enzyme 0.47 ng/μL, 100 μM ATP
Sequence (P28482 whole entry): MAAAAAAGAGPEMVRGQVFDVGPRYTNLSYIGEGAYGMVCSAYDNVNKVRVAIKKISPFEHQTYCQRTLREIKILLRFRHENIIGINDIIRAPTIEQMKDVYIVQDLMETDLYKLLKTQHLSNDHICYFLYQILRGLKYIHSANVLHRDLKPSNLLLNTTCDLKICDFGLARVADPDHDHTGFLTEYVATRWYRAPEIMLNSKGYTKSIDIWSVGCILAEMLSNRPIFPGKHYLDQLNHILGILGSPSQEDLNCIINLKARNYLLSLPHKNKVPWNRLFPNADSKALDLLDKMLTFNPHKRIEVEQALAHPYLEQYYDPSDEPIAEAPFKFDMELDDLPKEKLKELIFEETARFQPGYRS
pIC50: −log10 of the molar value.

[
  {
    "compound": "Cc1cc(-c2n[nH]c3cc4c(cc23)CN(C(C)c2nc(C)c(C)s2)C(=O)N4)ccn1 (stereo not shown)",
    "pIC50": "> 7.30"
  }
]

Param item = Cc1cc(-c2n[nH]c3cc4c(cc23)CN([C@@H]2CCCN(CC(F)(F)F)C2)C(=O)N4)cc(C)n1 ; retrieve measured pIC50.
> 7.30

Param item = Cc1cc(-c2n[nH]c3cc4c(cc23)CN([C@@H]2CCCN(C3CCC3)C2)C(=O)N4)ccn1 ; retrieve measured pIC50.
6.60 to 7.30

Param item = Cc1cc(-c2n[nH]c3cc4c(cc23)CN([C@@H]2CN(C)C[C@H]2c2ccccc2F)C(=O)N4)cc(C)n1 (racemic) ; retrieve measured pIC50.
> 7.30

Param item = Cn1nccc1-c1n[nH]c2cc3c(cc12)CN([C@@H]1CCN(CC(F)(F)F)C1)C(=O)N3 ; retrieve measured pIC50.
6.60 to 7.30

Param item = Cc1cc(-c2n[nH]c3cc4c(cc23)CN(CC2CCC2)C(=O)N4)ccn1 ; retrieve measured pIC50.
> 7.30

Param item = Cc1cc(-c2n[nH]c3cc4c(cc23)CN([C@@H]2CN(C)C[C@H]2C(C)C)C(=O)N4)ccn1 (mixture of isomers) ; retrieve measured pIC50.
6.00 to 6.60

Param item = Cc1cc(-c2n[nH]c3cc4c(cc23)CN(Cc2ccccc2)C(=O)N4)cc(C)n1 ; retrieve measured pIC50.
> 7.30

Param item = CC(c1ccccc1)c1cc2cc3c(N4CCN(C)CC4)n[nH]c3cc2[nH]c1=O (stereo not shown) ; retrieve measured pIC50.
6.60 to 7.30

Param item = Cc1cc(-c2n[nH]c3cc4c(cc23)CN(C2CCC2)C(=O)N4)ccn1 ; retrieve measured pIC50.
> 7.30
